Test: Aqueous solubility of the compound at […] under shaking condition for 24 hrs by UV absorbance based analysis
Type: physicochemical
Conditions: buffer, 24 h
// values below are reported solubility

{"Compound": "O=C1Nc2ccc(Cl)cc2C(c2ccccc2F)=NC12CC2", "solubility (µM)": 39}
{"Compound": "O=C(O)c1ncn2c1C1(CC1)N=C(c1ccccc1F)c1cc(Br)ccc1-2", "solubility (µM)": 8200}
{"Compound": "CC1(C)N=C(c2ccccc2F)c2cc(Br)ccc2NC1=O", "solubility (µM)": 319}
{"Compound": "CCOC(=O)c1ncn2c1C1(CCC1)N=C(c1ccccc1F)c1cc(Br)ccc1-2", "solubility (µM)": 186}
{"Compound": "O=C1Nc2ccc(Br)cc2C(c2ccccc2F)=NC12CCC2", "solubility (µM)": 109}
{"Compound": "C#Cc1ccc2c(c1)C(c1ccccc1F)=NC1(CC1)C1C(C(=O)OCC)N=CN21 (stereo not drawn)", "solubility (µM)": 53}
{"Compound": "O=C1Nc2ccc(Br)cc2C(c2ccccc2F)=NC12CCCC2", "solubility (µM)": 98}
{"Compound": "O=C(O)c1ncn2c1C1(CC1)N=C(c1ccccc1F)c1ccccc1-2", "solubility (µM)": 15100}
